assay: Cellular Toxicity (caspase-3) HepG2 (AID 654); details: HepG2 caspase-3 activation, luminescence, 0% = DMSO only, 100% = tamoxifen; series mostly up to 92.2 µM;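 note: cells exposed to compound for 16 hours before reading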
Active and inactive are the calls of the source. Calls come from the whole dose curve; as a rule, active = well fitted activation curve with a large enough effect; inconclusive = small, poorly fitted or top-dose-only effect; inactive = flat fitted curve, though single readings scatter.
value type: outcome

Use the examples below as a reference point.
compound: Cc1ccccc1N
outcome: inactive
--
compound: ClC(Cl)=C(c1ccc(Cl)cc1)c1ccc(Cl)cc1
outcome: inactive
--
compound: c1ccc(N=Nc2ccccc2)cc1
outcome: inactive
--
compound: c1nc[nH]n1
outcome: inactive
--
compound: Cc1cccc(C#N)c1
outcome: inactive
--
compound: C[C@]12CC[C@H]3[C@@H](CCC4=CC(=O)CC[C@@]43C)[C@@H]1CC[C@@H]2O
outcome: inactive
--
compound: ClC1=C(Cl)C2(Cl)C3C4C=CC(C4)C3C1(Cl)C2(Cl)Cl (stereo not given)
outcome: inactive
--
compound: OCC1CO1 (stereo not given)
outcome: inactive

Value sought for every listed compound: outcome.
1. ClC(Cl)(Cl)c1ccccc1
2. C=CC(N)=O
3. Cc1ccc([N+](=O)[O-])cc1C
4. Brc1ccccc1
5. O=C(O)COc1ccc(Cl)cc1Cl

1. inactive
2. inactive
3. inactive
4. inactive
5. inactive

Value sought for every listed compound: outcome.
1. C=CC(=C)C
2. Brc1ccc(Oc2cc(Br)c(Br)cc2Br)c(Br)c1

1: inactive; 2: inactive
